Values compiled from patent US20260284074A1.

# study_system: ENT1 (Homo sapiens, UniProt Q99808)
# Sequence (Q99808 whole entry): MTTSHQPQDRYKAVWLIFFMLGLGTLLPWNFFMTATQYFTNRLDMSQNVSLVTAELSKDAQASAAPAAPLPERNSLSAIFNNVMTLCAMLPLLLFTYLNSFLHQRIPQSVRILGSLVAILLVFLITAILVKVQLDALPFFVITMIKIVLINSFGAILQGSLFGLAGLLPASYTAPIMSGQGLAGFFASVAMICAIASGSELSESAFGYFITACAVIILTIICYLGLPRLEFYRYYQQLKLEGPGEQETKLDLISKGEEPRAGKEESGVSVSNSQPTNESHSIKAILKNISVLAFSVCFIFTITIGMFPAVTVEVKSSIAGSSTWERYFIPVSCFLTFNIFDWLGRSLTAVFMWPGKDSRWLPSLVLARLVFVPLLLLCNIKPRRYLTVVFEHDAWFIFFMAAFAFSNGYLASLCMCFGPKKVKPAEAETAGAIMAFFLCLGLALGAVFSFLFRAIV
# assay_protocol: ENT1 transport inhibition assay (uridine transport)
# assay_context: read-out: IC50, ENT1 inhibition (ENT1-mediated uridine transport)
quantity_measured: IC50
Number first, unit second.

Fill blank: measured IC50 of the molecule COc1cc(C(=O)O[C@@H]2CCCOc3cc(cc(OC)c3OC)C(=O)NCCCN3CCCN(CC2)CC3)cc(OC)c1OC is ____.
2.2 nM

----------
# Test system: human T cells
# assay_protocol: T cell proliferation by CFSE dilution in the presence of ATP
# Assay type: cell-based
# assay_context: human T cells activated in presence of 100 μM ATP, CFSE dilution, read-out: IC50, restoration of T cell proliferation
# Procedure: Human T cells were activated in the presence of 100 μM ATP and dilazep or Compound 1 and proliferation was monitored by CarboxyFluoroscein Succinimidyl Ester (CFSE) dilution. […] (See FIG. 27B.)
quantity_measured: IC50 (nM)
Report the value in nM with no unit label.

Fill blank: measured IC50 of the compound COc1cc(C(=O)OCCCN2CCCN(CCCOC(=O)c3cc(OC)c(OC)c(OC)c3)CC2)cc(OC)c1OC is ____.
2.4
